Recorded pIC50, one value per entry.
# target-under-test: human CRTH2 (Homo sapiens)
# Sequence (Q9Y5Y4 whole entry): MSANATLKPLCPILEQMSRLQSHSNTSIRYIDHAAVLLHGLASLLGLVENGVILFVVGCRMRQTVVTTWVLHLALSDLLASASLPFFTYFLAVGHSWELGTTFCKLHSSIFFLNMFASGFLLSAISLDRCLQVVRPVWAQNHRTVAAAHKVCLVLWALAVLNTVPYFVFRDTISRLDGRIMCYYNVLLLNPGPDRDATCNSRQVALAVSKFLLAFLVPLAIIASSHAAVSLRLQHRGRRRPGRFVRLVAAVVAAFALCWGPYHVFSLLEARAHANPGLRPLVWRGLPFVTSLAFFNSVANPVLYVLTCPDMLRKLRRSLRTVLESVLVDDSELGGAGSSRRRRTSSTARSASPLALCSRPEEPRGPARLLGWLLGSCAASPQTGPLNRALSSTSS
# experiment-summary: Human CRTH2 Receptor Binding Assay (whole cell, [3H]ramatroban competition)
# experimental-context: CHO-K1 cells expressing human CRTH2 and G-alpha16; 20 nM [3H]ramatroban; 1 hour, room temperature
pIC50: −log10 of the molar value.

{"compound": "Cc1ccc(Oc2ccc(S(=O)(=O)N(C)[C@@H]3CCCc4c3cnn4CC(=O)O)cc2Cl)c(C)c1 [Example 9-19a]", "pIC50": 7.94}
{"compound": "COc1cc(F)ccc1Oc1ncc(S(=O)(=O)N(C)[C@@H]2CCCc3c2cnn3CC(=O)O)cc1Br [Example 6-13a]", "pIC50": 8.19}
{"compound": "CN([C@@H]1CCCc2c1cnn2CC(=O)O)S(=O)(=O)c1cnc(Oc2ccc(F)cc2)c(Br)c1 [Example 6-12a]", "pIC50": 8.08}
{"compound": "CN([C@@H]1CCCc2c1cnn2CC(=O)O)S(=O)(=O)c1cc(Cl)c(Oc2ccc(F)cc2)cc1F [Example 9-30a]", "pIC50": 7.42}
{"compound": "O=C(O)Cn1ncc2c1CCC[C@H]2NS(=O)(=O)c1cnc(Oc2ccc(Cl)cc2)c(Br)c1", "pIC50": 8.11}
{"compound": "CCOc1ccc(-c2ccc(S(=O)(=O)NC3CCCc4c3cnn4CC(=O)O)cc2)cc1 (stereo not shown)", "pIC50": 6.71}
{"compound": "CN([C@@H]1CCCc2c1cnn2CC(=O)O)S(=O)(=O)c1ccc(Oc2ccc(Cl)cc2)c(F)c1 [Example 9-12a]", "pIC50": 8.13}
